targetDesc: BTK (Homo sapiens)
Sequence (Q06187 whole entry): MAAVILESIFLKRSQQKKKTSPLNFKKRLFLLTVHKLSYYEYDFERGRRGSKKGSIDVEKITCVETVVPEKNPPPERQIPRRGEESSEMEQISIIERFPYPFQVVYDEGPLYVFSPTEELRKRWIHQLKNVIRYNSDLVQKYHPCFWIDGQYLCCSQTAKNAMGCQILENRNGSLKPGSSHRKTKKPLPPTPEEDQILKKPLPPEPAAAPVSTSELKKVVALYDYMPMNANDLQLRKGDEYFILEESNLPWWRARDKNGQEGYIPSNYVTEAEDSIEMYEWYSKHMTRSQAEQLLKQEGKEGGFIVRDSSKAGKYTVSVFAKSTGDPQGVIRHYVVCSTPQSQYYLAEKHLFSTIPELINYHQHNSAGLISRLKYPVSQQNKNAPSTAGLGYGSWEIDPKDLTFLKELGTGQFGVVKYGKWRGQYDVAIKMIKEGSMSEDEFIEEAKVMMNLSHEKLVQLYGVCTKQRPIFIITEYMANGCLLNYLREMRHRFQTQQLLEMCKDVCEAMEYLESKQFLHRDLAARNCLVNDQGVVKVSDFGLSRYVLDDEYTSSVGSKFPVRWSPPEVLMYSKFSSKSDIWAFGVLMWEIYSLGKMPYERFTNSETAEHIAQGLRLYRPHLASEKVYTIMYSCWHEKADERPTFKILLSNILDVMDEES
testSummary: BTK cell degradation in TMD-8 cells, HTRF assay
Type: cell-based
Parameters: endogenous in cells; host or cells: TMD-8 cells
setupConditions: 6 h treatment, IC50 (DC50) of BTK degradation
Below, each entry is listed alongside its reported DC50.
I only need the number, in nM, no unit after it.

compound="Cc1cccc(NC(=O)c2ccc(-c3nn4c(c3C(N)=O)Nc3ccc(N5CCN(CCc6cccc7c6oc(=O)n7C6CCC(=O)NC6=O)CC5)cc3CC4)c(F)c2C)n1 (centres unmarked) [Example B61]" targetdesc="BTK (Homo sapiens)" readingunit=nM assayresult=1.09
compound="COc1ccc(F)c(F)c1C(=O)NCc1ccc(-c2nn3c(c2C(N)=O)Nc2ccc(N4CCN(CC5CCN(c6ccc(N7CCC(=O)NC7=O)cc6)CC5)CC4)cc2CC3)cc1 [Example C25]" targetdesc="BTK (Homo sapiens)" readingunit=nM assayresult=0.611
compound="NC(=O)c1c(-c2ccc(Oc3ccccc3)cc2)nn2c1Nc1ccc(NC(=O)COCCOCCOCCOCCNc3cccc4c3C(=O)N(C3CCC(=O)NC3=O)C4=O)cc1CC2 (centres unmarked) [Example A2]" targetdesc="BTK (Homo sapiens)" readingunit=nM assayresult=1.85
compound="NC(=O)c1c(-c2ccc(C(=O)Nc3cc(C(F)F)ccn3)cc2)nn2c1Nc1ccc(N3CCN(CC4CCN(c5ccc(N6CCC(=O)NC6=O)cc5)CC4)CC3)cc1CC2 [Example B18]" targetdesc="BTK (Homo sapiens)" readingunit=nM assayresult=0.378

Below: the item to evaluate.
Tell me the measured DC50 of Cc1c(C(=O)Nc2cscn2)ccc(-c2nn3c(c2C(N)=O)Nc2ccc(N4CCN(C5CC(c6ccc(N[C@@H]7CCC(=O)NC7=O)cc6)C5)CC4)cc2CC3)c1F (some centres unmarked) [Example B100] , please.
2.14

* * *

Test system: HEK-293 cells
testSummary: HEK-293 cytotoxicity detection (CellTiter-Glo)
Assay type: cell-based
setupConditions: Homo sapiens, 72 h, 72 h incubation, CellTiter-Glo luminescence, read-out: HEK293
Description: HEK-293 cells were treated with compounds diluted in 0.2% DMSO, dilution was done according to the following protocol: (1) making 500× stock solution in DMSO from 5 mM by 4-fold dilution, total 8 doses were included; (2) making 2× solution in cell culture medium by transferring 0.5 ul 500× stock solution into 125 ul medium; (3) adding 50 ul of 2× solution to cells for incubation of 72 h. 25 μl of the CellTiter-Glo®Reagent [(Promega)—Cat No. G7572] was added to each well in the 96-well plate. […]
Below, each entry is listed alongside its reported IC50.

Tell me the measured IC50 of NC(=O)c1c(-c2ccc(Oc3ccccc3)cc2)nn2c1Nc1ccc(N3CCN(CC4CCN(c5ccc6c(c5)C(=O)N(C5CCC(=O)NC5=O)C6=O)CC4)CC3)cc1CC2 (centres unmarked) , please.
0.163 µM

For COc1ccccc1C(=O)NC(C)c1ccc(-c2nn3c(c2C(N)=O)Nc2ccc(N4CCN(CC5CCN(c6ccc(N7CCC(=O)NC7=O)cc6)CC5)CC4)cc2CC3)cc1 (centres unmarked) then?
> 10 µM

For `COc1ccc(F)cc1C(=O)NCc1ccc(-c2nn3c(c2C(N)=O)Nc2ccc(N4CCN(CC5CCN(c6ccc(N7CCC(=O)NC7=O)cc6)CC5)CC4)cc2CC3)cc1C` then?
> 10 µM

For `CC(C)(C)c1noc(C(=O)NCc2ccc(-c3nn4c(c3C(N)=O)Nc3ccc(N5CCN(CC6CCN(c7ccc(N8CCC(=O)NC8=O)cc7)CC6)CC5)cc3CC4)cc2)n1` then?
> 10 µM

For `COc1ccc2ccccc2c1C(=O)NCc1ccc(-c2nn3c(c2C(N)=O)Nc2ccc(N4CCN(CC5CCN(c6ccc(N7CCC(=O)NC7=O)cc6)CC5)CC4)cc2CC3)cc1` then?
> 10 µM

For `COc1ccc(C(F)(F)F)cc1C(=O)NCc1ccc(-c2nn3c(c2C(N)=O)Nc2ccc(N4CCN(CC5CCN(c6ccc(N7CCC(=O)NC7=O)cc6)CC5)CC4)cc2CC3)c(OC)c1` then?
0.209 µM

For `COc1cccc(C)c1C(=O)NCc1ccc(-c2nn3c(c2C(N)=O)Nc2ccc(N4CCN(CC5CCN(c6ccc(N7CCC(=O)NC7=O)cc6)CC5)CC4)cc2CC3)cc1C` then?
> 10 µM

For `Cc1cccc(NC(=O)c2ccc(-c3nn4c(c3C(N)=O)Nc3ccc(N5CCN(CC6CCN(c7ccc(N8CCC(=O)NC8=O)cc7)CC6)CC5)cc3CC4)c(Cl)c2)n1` then?
> 10 µM

For `Cc1cc(C(=O)Nc2cc(C(F)(F)F)ccn2)ccc1-c1nn2c(c1C(N)=O)Nc1ccc(N3CCN(CC4CCN(c5ccc(N6CCC(=O)NC6=O)cc5)CC4)CC3)cc1CC2` then?
> 10 µM

For `COc1ccccc1C(=O)NCc1ccc(-c2nn3c(c2C(N)=O)Nc2ccc(N4CCN(CC5CCN(c6ccc(N7CCC(=O)NC7=O)cc6)CC5)CC4)cc2CC3)c(F)c1F` then?
0.222 µM

For `Cc1c(C(=O)Nc2cscn2)ccc(-c2nn3c(c2C(N)=O)Nc2ccc(N4CCN(CC5CN(c6ccc(N7CCC(=O)NC7=O)cc6)C5)CC4)cc2CC3)c1F` then?
> 10 µM

* * *

Below, each entry is listed alongside its reported pIC50.
Tested on: HEK-293 cells
testSummary: HEK-293 cytotoxicity detection (CellTiter-Glo)
Type: cell-based
setupConditions: Homo sapiens, 72 h, 72 h incubation, CellTiter-Glo luminescence, read-out: HEK293
Procedure: HEK-293 cells were treated with compounds diluted in 0.2% DMSO, dilution was done according to the following protocol: (1) making 500× stock solution in DMSO from 5 mM by 4-fold dilution, total 8 doses were included; (2) making 2× solution in cell culture medium by transferring 0.5 ul 500× stock solution into 125 ul medium; (3) adding 50 ul of 2× solution to cells for incubation of 72 h. 25 μl of the CellTiter-Glo®Reagent [(Promega)—Cat No. G7572] was added to each well in the 96-well plate. […]
pIC50: −log10 of the molar value.

compound="Cc1c(C(=O)Nc2cscn2)ccc(-c2nn3c(c2C(N)=O)Nc2ccc(N4CCN(CCc5cccc6c5oc(=O)n6C5CCC(=O)NC5=O)CC4)cc2CC3)c1F (centres unmarked)" targetdesc="HEK-293 cells" propertylabel=pIC50 assayresult=6.94
compound="NC(=O)c1c(-c2ccc(Oc3ccccc3)cc2)nn2c1Nc1ccc(C(=O)N3CCN(CC4CCN(c5ccc6c(c5)C(=O)N(C5CCC(=O)NC5=O)C6=O)CC4)CC3)cc1CC2 (centres unmarked)" targetdesc="HEK-293 cells" propertylabel=pIC50 assayresult=6.78
compound="Cc1cccc(NC(=O)c2ccc(-c3nn4c(c3C(N)=O)Nc3ccc(N5CCN(C6CC(c7ccc([C@@H]8CCC(=O)NC8=O)cc7)C6)CC5)cc3CC4)c(F)c2C)n1 (some centres unmarked)" targetdesc="HEK-293 cells" propertylabel=pIC50 assayresult=6.98
compound=Cc1c(C(=O)Nc2cnc3ccccc3n2)ccc(-c2nn3c(c2C(N)=O)Nc2ccc(N4CCN(CC5CCN(c6ccc(N7CCC(=O)NC7=O)cc6)CC5)CC4)cc2CC3)c1F targetdesc="HEK-293 cells" propertylabel=pIC50 assayresult="< 5.00"
compound="NC(=O)c1c(-c2ccc(Oc3ccccc3)cc2)nn2c1Nc1ccc(CCC3CCN(c4ccc(NC5CCC(=O)NC5=O)cc4)CC3)cc1CC2 (centres unmarked)" targetdesc="HEK-293 cells" propertylabel=pIC50 assayresult=6.55

Tell me the measured pIC50 of `COc1ccc(C(F)(F)F)cc1C(=O)NCc1ccc(-c2nn3c(c2C(N)=O)Nc2ccc(N4CCN(CC5CCN(c6ccc(N7CCC(=O)NC7=O)cc6)CC5)CC4)cc2CC3)c(F)c1` , please.
< 5.00

For `Cc1cncc(NC(=O)c2ccc(-c3nn4c(c3C(N)=O)Nc3ccc(N5CCN(CC6CCN(c7ccc(N8CCC(=O)NC8=O)cc7)CC6)CC5)cc3CC4)c(F)c2C)n1` then?
< 5.00

For `COc1ccccc1C(=O)NCc1ccc(-c2nn3c(c2C(N)=O)Nc2ccc(N4CCN(CC5CCN(c6ccc(N7CCC(=O)NC7=O)cc6)CC5)CC4)cc2CC3)c(F)c1C` then?
< 5.00

For Cc1c(C(=O)Nc2cn(C)cn2)ccc(-c2nn3c(c2C(N)=O)Nc2ccc(N4CCN(CCc5cccc6c5oc(=O)n6C5CCC(=O)NC5=O)CC4)cc2CC3)c1F (centres unmarked) then?
< 5.00

For `COc1ccc(F)c(F)c1C(=O)NCc1ccc(-c2nn3c(c2C(N)=O)Nc2ccc(N4CCN(CC5CCN(c6ccc(N7CCC(=O)NC7=O)cc6)CC5)CC4)cc2CC3)cc1` then?
< 5.00

For `COc1ccccc1C(=O)NCc1ccc(-c2nn3c(c2C(N)=O)Nc2ccc(N4CCN(CC5CCN(c6ccc(N7CCC(=O)NC7=O)cc6)CC5)CC4)cc2CC3)cc1` then?
< 5.00
